- ASSAY TEXT: Cytotoxicity against MDCK cells assessed as increase in cell death after 48 hrs by MTT assay
- Format: toxicity, cell-based, Canis lupus familiaris
- SETTINGS: dog
Response field label: string, one of class 1 (CC50 at 48 h strictly below 200 µM) or class 0.

| STRUCTURE SMILES | QUALITATIVE LABEL |
| --- | --- |
| O=C(/N=c1\[nH]c2ccccc2n1CCOc1ccc(F)cc1)c1ccc([N+](=O)[O-])cc1 | class 0 |
| O=C(/N=c1\[nH]c2ccccc2n1CCOc1ccc(F)cc1)c1ccc(Cl)cc1 | class 0 |
| Br.Cc1ccc(OCCn2c(=N)n(Cc3ccc(Cl)c(Cl)c3)c3ccccc32)cc1 | class 1 |
| S=C(Nc1ccccc1)Nc1nc2ccccc2n1CCOc1ccc(Br)cc1 | class 1 |
| O=C(Nc1nc2ccccc2n1CCOc1ccc(Cl)cc1)c1ccco1 | class 0 |
| COc1ccc(OCCn2/c(=N/C(=O)c3cccs3)[nH]c3ccccc32)cc1 | class 0 |
| Cl.N=c1n(Cc2ccc(F)cc2)c2ccccc2n1Cc1ccc(Cl)c(Cl)c1 | class 1 |
| Cl.N=c1n(CO)c2ccccc2n1CCOc1ccc(Cl)cc1 | class 1 |
| CC(C)(C)c1ccc(OCCn2c(=N)n(CC(N)=O)c3ccccc32)cc1.Cl | class 1 |
| O=C(Nc1nc2ccccc2n1CCOc1ccccc1)c1ccco1 | class 0 |

Prompt: Hello, is CC50 at 48 h of the following compound strictly smaller than 200 µM? "O=C(/N=c1\[nH]c2ccccc2n1CCOc1ccc(Cl)cc1)c1cccs1"
Completion: class 0

Prompt: Hello, is CC50 at 48 h of the following compound strictly smaller than 200 µM? "S=C(Nc1ccccc1)Nc1nc2ccccc2n1CCOc1ccccc1"
Completion: class 1

Prompt: Hello, is CC50 at 48 h of the following compound strictly smaller than 200 µM? "Cl.N=c1n(CCOc2ccc(F)cc2)c2ccccc2n1CC(N)=O"
Completion: class 0

###

- System: Guanarito virus
- ASSAY TEXT: Antiviral activity against Guanarito virus
- Type: functional
- SETTINGS: Mammarenavirus guanaritoense
pIC50: −log10 of the molar value.
PARAMETER: pIC50

Prompt: Given the molecule "COc1ccc(-n2cnc3cc(NCc4ccc(C)cc4)ccc32)cc1" , what is its reported pIC50?
Completion: 7.92 to 9.70

###

Record form. Attribute: Ratio CC50/IC50. Fill in for each entry.
- ASSAY TEXT: Selectivity index, ratio of CC50 for MDCK cells to IC50 for Influenza A virus (A/California/07/09(H1N1)) pdm09
- Assay type: functional
One number for each entry.

# example entries with known answers
| STRUCTURE SMILES | EXPERIMENTAL RESULT |
| --- | --- |
| Cl.N=c1n(CC(N)=O)c2ccccc2n1Cc1ccc(Cl)c(Cl)c1 | 28 |
| O=C(Nc1nc2ccccc2n1CCOc1ccc(Cl)cc1)c1ccco1 | 6 |

Kindly give each listed record's Ratio CC50/IC50.
1. Cl.N=c1n(CCO)c2ccccc2n1Cc1ccc(Cl)c(Cl)c1
2. O=C(Nc1nc2ccccc2n1CCOc1ccccc1)c1ccco1
3. Cc1ccc(OCCn2c(=N)n(CC(N)=O)c3ccccc32)cc1.Cl
4. O=C(/N=c1\[nH]c2ccccc2n1CCOc1ccc(Cl)cc1)c1cccs1
5. Br.Cc1ccc(OCCn2c(=N)n(Cc3ccc(Cl)c(Cl)c3)c3ccccc32)cc1
6. CC(C)(C)c1ccc(OCCn2c(=N)n(CC(N)=O)c3ccccc32)cc1.Cl
7. CC(C)(C)c1ccc(C(=O)/N=c2\[nH]c3ccccc3n2CCOc2ccc(Br)cc2)cc1

Completion:
1. 83
2. 50
3. 9
4. 8
5. 11
6. 5
7. 54

Prompt: Given the compound "Cl.N=c1n(CO)c2ccccc2n1CCOc1ccc(Cl)cc1" , what is its reported Ratio CC50/IC50?
Completion: 9

###

Record form. Attribute: log10 of CC50 at 48 h. Fill in for each entry.
- ASSAY TEXT: Cytotoxicity against MDCK cells assessed as increase in cell death after 48 hrs by MTT assay
- Assay type: toxicity, cell-based, Canis lupus familiaris
- SETTINGS: dog
Answers are given as log10 of CC50 at 48 h in µM.

# example entries with known answers
| STRUCTURE SMILES | EXPERIMENTAL RESULT |
| --- | --- |
| Cl.N=c1n(CCO)c2ccccc2n1Cc1ccc(Cl)c(Cl)c1 | 2.31 |
| Br.C=CCn1c(=N)n(CCCOc2ccc(F)cc2)c2ccccc21 | 1.90 |
| Cc1ccccc1OCCn1/c(=N/C(=O)c2cccs2)[nH]c2ccccc21 | 2.20 |
| O=C(/N=c1\[nH]c2ccccc2n1CCOc1cccc(Cl)c1)c1ccco1 | 2.91 |
| Br.C=CCn1c(=N)n(CCOc2ccc(C(C)(C)C)cc2)c2ccccc21 | 1.11 |
| CC(C)(C)c1ccc(C(=O)/N=c2\[nH]c3ccccc3n2CCOc2ccc(Br)cc2)cc1 | 3.31 |
| Cc1ccc(OCCn2c(=N)n(CC(N)=O)c3ccccc32)cc1.Cl | 2.49 |

Prompt: Given the compound "Cl.N=c1n(CC(N)=O)c2ccccc2n1Cc1ccc(Cl)c(Cl)c1" , what is its reported log10 of CC50 at 48 h?
Completion: 2.29

###

- ASSAY TEXT: Selectivity index, ratio of CC50 for MDCK cells to IC50 for Influenza A virus (A/California/07/09(H1N1)) pdm09
- Format: functional
Record form. Attribute: Ratio CC50/IC50. Fill in for each entry.

# example entries with known answers
| STRUCTURE SMILES | Ratio CC50/IC50 |
| --- | --- |
| O=C(/N=c1\[nH]c2ccccc2n1CCOc1ccc(Br)cc1)c1cccs1 | >7 |
| O=C(/N=c1\[nH]c2ccccc2n1CCOc1ccc(F)cc1)c1ccc([N+](=O)[O-])cc1 | >5 |
| S=C(Nc1ccccc1)Nc1nc2ccccc2n1CCOc1ccc(Br)cc1 | <1 |
| COc1ccc(OCCn2/c(=N/C(=O)c3cccs3)[nH]c3ccccc32)cc1 | >6 |

Prompt: Given the compound "O=C(/N=c1\[nH]c2ccccc2n1CCOc1ccc(F)cc1)c1ccc(Cl)cc1" , what is its reported Ratio CC50/IC50?
Completion: >7
